Where do these numbers come from? They come from patent US11975040B2.

Target: T1, mouse Plexin B1 (mouse, UniProt Q8CJH3 20-535, limits assumed)
T1 sequence (looked up): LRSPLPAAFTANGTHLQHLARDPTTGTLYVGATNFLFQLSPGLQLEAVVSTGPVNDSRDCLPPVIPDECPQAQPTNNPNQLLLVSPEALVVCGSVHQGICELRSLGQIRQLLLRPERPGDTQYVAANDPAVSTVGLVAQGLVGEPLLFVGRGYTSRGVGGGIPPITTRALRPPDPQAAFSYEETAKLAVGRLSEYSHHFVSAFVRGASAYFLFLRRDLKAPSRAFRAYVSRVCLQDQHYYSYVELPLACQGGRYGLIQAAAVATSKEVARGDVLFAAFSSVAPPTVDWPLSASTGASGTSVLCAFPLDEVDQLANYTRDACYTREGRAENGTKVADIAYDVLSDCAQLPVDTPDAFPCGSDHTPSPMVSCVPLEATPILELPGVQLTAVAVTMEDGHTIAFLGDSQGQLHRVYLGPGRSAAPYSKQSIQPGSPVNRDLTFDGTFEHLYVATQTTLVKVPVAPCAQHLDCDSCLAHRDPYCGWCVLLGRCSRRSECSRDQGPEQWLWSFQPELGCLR
Assay: SPR
Positions of bridges follow the written chain, without caps; N, C: chain ends. Non-standard residues stand in square brackets, D forms with d. No end group written: not given here.
MEASUREMENT_NAME: pKd
Give bare numbers, as −log10 of the molar value.

BINDER	pKd
{CH2CO}-[dW]RAFIERWTGRLVVCG (thioether N-15) [cyclic peptide mp6-7]	6.90
{CH2CO}-[dW]LAYIERWTGQIVRCG (thioether N-15) [cyclic peptide mp6-5]	6.29

## Input Can you look up the measured pKd of {CH2CO}-[dW]LGYIARWTGTVVKCG (thioether N-15) [cyclic peptide mp6-3] for me?
## Output 6.64
